Entry source: patent US11628228B2

Readings of Bone uptake for the listed compounds
Tested on: S180-bearing mice
test_summary: Bio-distribution in tumor-bearing mice
Type: in vivo
conditions: S180-bearing mice, tail vein, 120 min
Write the value in % ID/g as a bare number.

Reference set (3 entries):
compound="O=C(CCCCC[N+]#[C][99Tc-5]([C]#[N+]CCCCCC(=O)NC1C(O)OC(CO)C(O)C1O)([C]#[N+]CCCCCC(=O)NC1C(O)OC(CO)C(O)C1O)([C]#[N+]CCCCCC(=O)NC1C(O)OC(CO)C(O)C1O)([C]#[N+]CCCCCC(=O)NC1C(O)OC(CO)C(O)C1O)[C]#[N+]CCCCCC(=O)NC1C(O)OC(CO)C(O)C1O)NC1C(O)OC(CO)C(O)C1O (stereo not shown) [[^99mTc-(CN5DG)6]^+]" quantity="Bone uptake" unit_string="% ID/g" numeric_result=0.15
compound="O=C(CC[N+]#[C][99Tc-5]([C]#[N+]CCC(=O)NC1C(O)OC(CO)C(O)C1O)([C]#[N+]CCC(=O)NC1C(O)OC(CO)C(O)C1O)([C]#[N+]CCC(=O)NC1C(O)OC(CO)C(O)C1O)([C]#[N+]CCC(=O)NC1C(O)OC(CO)C(O)C1O)[C]#[N+]CCC(=O)NC1C(O)OC(CO)C(O)C1O)NC1C(O)OC(CO)C(O)C1O (stereo not shown) [[^99mTc-(CN2DG)6]^+]" quantity="Bone uptake" unit_string="% ID/g" numeric_result=0.05
compound="O=C(CCC[N+]#[C][99Tc-5]([C]#[N+]CCCC(=O)NC1C(O)OC(CO)C(O)C1O)([C]#[N+]CCCC(=O)NC1C(O)OC(CO)C(O)C1O)([C]#[N+]CCCC(=O)NC1C(O)OC(CO)C(O)C1O)([C]#[N+]CCCC(=O)NC1C(O)OC(CO)C(O)C1O)[C]#[N+]CCCC(=O)NC1C(O)OC(CO)C(O)C1O)NC1C(O)OC(CO)C(O)C1O (stereo not shown) [[^99mTc-(CN3DG)6]^+]" quantity="Bone uptake" unit_string="% ID/g" numeric_result=0.13

Okay, next one:
Prompt: I'm curious: which Bone uptake was measured for O=C(CCCC[N+]#[C][99Tc-5]([C]#[N+]CCCCC(=O)NC1C(O)OC(CO)C(O)C1O)([C]#[N+]CCCCC(=O)NC1C(O)OC(CO)C(O)C1O)([C]#[N+]CCCCC(=O)NC1C(O)OC(CO)C(O)C1O)([C]#[N+]CCCCC(=O)NC1C(O)OC(CO)C(O)C1O)[C]#[N+]CCCCC(=O)NC1C(O)OC(CO)C(O)C1O)NC1C(O)OC(CO)C(O)C1O (stereo not shown) [[^99mTc-(CN4DG)6]^+] tested on S180-bearing mice?
Response: 0.13

* * *

Liver uptake reference
System: S180-bearing mice
test_summary: Bio-distribution in tumor-bearing mice
Format: in vivo
conditions: S180-bearing mice, tail vein, 60 min
Write down the value, and be sure its unit follows.

Would you please look over these solved cases?
compound="O=C(CCCCC[N+]#[C][99Tc-5]([C]#[N+]CCCCCC(=O)NC1C(O)OC(CO)C(O)C1O)([C]#[N+]CCCCCC(=O)NC1C(O)OC(CO)C(O)C1O)([C]#[N+]CCCCCC(=O)NC1C(O)OC(CO)C(O)C1O)([C]#[N+]CCCCCC(=O)NC1C(O)OC(CO)C(O)C1O)[C]#[N+]CCCCCC(=O)NC1C(O)OC(CO)C(O)C1O)NC1C(O)OC(CO)C(O)C1O (stereo not shown) [[^99mTc-(CN5DG)6]^+]" assay_target="S180-bearing mice" quantity="Liver uptake" result="0.38 ± 0.08 % ID/g"
compound="O=C(CC[N+]#[C][99Tc-5]([C]#[N+]CCC(=O)NC1C(O)OC(CO)C(O)C1O)([C]#[N+]CCC(=O)NC1C(O)OC(CO)C(O)C1O)([C]#[N+]CCC(=O)NC1C(O)OC(CO)C(O)C1O)([C]#[N+]CCC(=O)NC1C(O)OC(CO)C(O)C1O)[C]#[N+]CCC(=O)NC1C(O)OC(CO)C(O)C1O)NC1C(O)OC(CO)C(O)C1O (stereo not shown) [[^99mTc-(CN2DG)6]^+]" assay_target="S180-bearing mice" quantity="Liver uptake" result="0.18 ± 0.02 % ID/g"
compound="O=C(CCC[N+]#[C][99Tc-5]([C]#[N+]CCCC(=O)NC1C(O)OC(CO)C(O)C1O)([C]#[N+]CCCC(=O)NC1C(O)OC(CO)C(O)C1O)([C]#[N+]CCCC(=O)NC1C(O)OC(CO)C(O)C1O)([C]#[N+]CCCC(=O)NC1C(O)OC(CO)C(O)C1O)[C]#[N+]CCCC(=O)NC1C(O)OC(CO)C(O)C1O)NC1C(O)OC(CO)C(O)C1O (stereo not shown) [[^99mTc-(CN3DG)6]^+]" assay_target="S180-bearing mice" quantity="Liver uptake" result="0.23 ± 0.03 % ID/g"

Shift focus to the following entry.
Prompt: // query Liver uptake value for entry O=C(CCCC[N+]#[C][99Tc-5]([C]#[N+]CCCCC(=O)NC1C(O)OC(CO)C(O)C1O)([C]#[N+]CCCCC(=O)NC1C(O)OC(CO)C(O)C1O)([C]#[N+]CCCCC(=O)NC1C(O)OC(CO)C(O)C1O)([C]#[N+]CCCCC(=O)NC1C(O)OC(CO)C(O)C1O)[C]#[N+]CCCCC(=O)NC1C(O)OC(CO)C(O)C1O)NC1C(O)OC(CO)C(O)C1O (stereo not shown) [[^99mTc-(CN4DG)6]^+]
Response: 0.28 ± 0.06 % ID/g

* * *

Test system: S180-bearing mice
test_summary: Bio-distribution in tumor-bearing mice
Format: in vivo
conditions: S180-bearing mice, tail vein, 30 min
Tumor/blood ratio reference
Quick one: just the number, no unit, thanks!

Field: example entries. Status: answers known.
molecule="O=C(CCC[N+]#[C][99Tc-5]([C]#[N+]CCCC(=O)NC1C(O)OC(CO)C(O)C1O)([C]#[N+]CCCC(=O)NC1C(O)OC(CO)C(O)C1O)([C]#[N+]CCCC(=O)NC1C(O)OC(CO)C(O)C1O)([C]#[N+]CCCC(=O)NC1C(O)OC(CO)C(O)C1O)[C]#[N+]CCCC(=O)NC1C(O)OC(CO)C(O)C1O)NC1C(O)OC(CO)C(O)C1O (stereo not shown) [[^99mTc-(CN3DG)6]^+]" quantity="Tumor/blood ratio" numeric_result=1.91
molecule="O=C(CC[N+]#[C][99Tc-5]([C]#[N+]CCC(=O)NC1C(O)OC(CO)C(O)C1O)([C]#[N+]CCC(=O)NC1C(O)OC(CO)C(O)C1O)([C]#[N+]CCC(=O)NC1C(O)OC(CO)C(O)C1O)([C]#[N+]CCC(=O)NC1C(O)OC(CO)C(O)C1O)[C]#[N+]CCC(=O)NC1C(O)OC(CO)C(O)C1O)NC1C(O)OC(CO)C(O)C1O (stereo not shown) [[^99mTc-(CN2DG)6]^+]" quantity="Tumor/blood ratio" numeric_result=1.16
molecule="O=C(CCCCC[N+]#[C][99Tc-5]([C]#[N+]CCCCCC(=O)NC1C(O)OC(CO)C(O)C1O)([C]#[N+]CCCCCC(=O)NC1C(O)OC(CO)C(O)C1O)([C]#[N+]CCCCCC(=O)NC1C(O)OC(CO)C(O)C1O)([C]#[N+]CCCCCC(=O)NC1C(O)OC(CO)C(O)C1O)[C]#[N+]CCCCCC(=O)NC1C(O)OC(CO)C(O)C1O)NC1C(O)OC(CO)C(O)C1O (stereo not shown) [[^99mTc-(CN5DG)6]^+]" quantity="Tumor/blood ratio" numeric_result=1.16

Here is the next item to consider.
Prompt: Can you look up Tumor/blood ratio on S180-bearing mice for O=C(CCCC[N+]#[C][99Tc-5]([C]#[N+]CCCCC(=O)NC1C(O)OC(CO)C(O)C1O)([C]#[N+]CCCCC(=O)NC1C(O)OC(CO)C(O)C1O)([C]#[N+]CCCCC(=O)NC1C(O)OC(CO)C(O)C1O)([C]#[N+]CCCCC(=O)NC1C(O)OC(CO)C(O)C1O)[C]#[N+]CCCCC(=O)NC1C(O)OC(CO)C(O)C1O)NC1C(O)OC(CO)C(O)C1O (stereo not shown) [[^99mTc-(CN4DG)6]^+] ?
Response: 0.95

* * *

Readings of Tumor/muscle ratio for the listed compounds
Test system: S180-bearing mice
test_summary: Bio-distribution in tumor-bearing mice
Type: in vivo
conditions: S180-bearing mice, tail vein, 60 min
Reply with just the number.

Below, each entry is followed by its recorded Tumor/muscle ratio result.
compound="O=C(CCCC[N+]#[C][99Tc-5]([C]#[N+]CCCCC(=O)NC1C(O)OC(CO)C(O)C1O)([C]#[N+]CCCCC(=O)NC1C(O)OC(CO)C(O)C1O)([C]#[N+]CCCCC(=O)NC1C(O)OC(CO)C(O)C1O)([C]#[N+]CCCCC(=O)NC1C(O)OC(CO)C(O)C1O)[C]#[N+]CCCCC(=O)NC1C(O)OC(CO)C(O)C1O)NC1C(O)OC(CO)C(O)C1O (stereo not drawn) [[^99mTc-(CN4DG)6]^+]" numeric_result=3.26
compound="O=C(CCCCC[N+]#[C][99Tc-5]([C]#[N+]CCCCCC(=O)NC1C(O)OC(CO)C(O)C1O)([C]#[N+]CCCCCC(=O)NC1C(O)OC(CO)C(O)C1O)([C]#[N+]CCCCCC(=O)NC1C(O)OC(CO)C(O)C1O)([C]#[N+]CCCCCC(=O)NC1C(O)OC(CO)C(O)C1O)[C]#[N+]CCCCCC(=O)NC1C(O)OC(CO)C(O)C1O)NC1C(O)OC(CO)C(O)C1O (stereo not drawn) [[^99mTc-(CN5DG)6]^+]" numeric_result=3.96

Here is another compound to look at.
Prompt: Give the reported Tumor/muscle ratio for O=C(CCC[N+]#[C][99Tc-5]([C]#[N+]CCCC(=O)NC1C(O)OC(CO)C(O)C1O)([C]#[N+]CCCC(=O)NC1C(O)OC(CO)C(O)C1O)([C]#[N+]CCCC(=O)NC1C(O)OC(CO)C(O)C1O)([C]#[N+]CCCC(=O)NC1C(O)OC(CO)C(O)C1O)[C]#[N+]CCCC(=O)NC1C(O)OC(CO)C(O)C1O)NC1C(O)OC(CO)C(O)C1O (stereo not drawn) [[^99mTc-(CN3DG)6]^+] (system: S180-bearing mice).
Response: 5.88
